# Tested on: Caco-2 cell monolayers
# experiment: Bidirectional permeability across Caco-2 cell monolayers
# study conditions: matrix: human plasma, corrected for fu
Measured A–B Papp accompanies every entry in the list below.

molecule | A–B Papp
COc1cc(N[C@H](C)CCCN)c2nccc(C)c2c1Oc1ccc(Cl)c(Cl)c1 [NPC1161B] | > 300 10^−6 cm/s

Ask | Suppose we examine the molecule CN(C)C[c-]1cccc1CNc1ccnc2cc(Cl)ccc12.[Fe+2].c1cc[cH-]c1 (stereo not shown) ; what A–B Papp value has been reported?
Reply | 32 ± 6.8 10^−6 cm/s

Ask | Suppose we examine the molecule `COc1cc2[nH]c(C)c(-c3ccc(Oc4ccc(OC(F)(F)F)cc4)cc3)c(=O)c2cc1Cl` ; what A–B Papp value has been reported?
Reply | > 300 10^−6 cm/s

Ask | Suppose we examine the molecule CS(=O)(=O)O.FC1CCN(CCOc2ccc(C3CCC4(CC3)OOC3(OO4)C4CC5CC(C4)CC3C5)cc2)CC1 (stereo not shown) ; what A–B Papp value has been reported?
Reply | > 300 10^−6 cm/s
